meta.source: PubChem BioAssay AID1159580

# method description: chemical genetic growth profiling, strain panel (AID 1159580);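 also: tested at 20 µM; growth read once vehicle control cultures reached saturation at 30 °C; lower values mean less growth of the strain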
# condition label: S. cerevisiae deletion strains, growth OD, locus YDR297W, strain sur2, stronger effect = lower value
The campaign covered roughly 5,500 compounds. About 2,000 (36%) were called active. Inconclusive results (about 18%) are left out. The list shows a part of the results.
Exam item: assign condition met to entries whose normalized growth is below 1 and condition not met to entries at or above 1. Note that a value of exactly 1 receives condition not met.

[
  {
    "molecule": "C[C@]12CCC3c4ccc(O)cc4CCC3C1C[C@@H](O)[C@@H]2O (stereo partly specified)",
    "category": "condition not met"
  },
  {
    "molecule": "COc1ccc2c(c1)CCC1C2CC[C@@]2(C)C1CC[C@@H]2O (stereo partly specified)",
    "category": "condition met"
  },
  {
    "molecule": "O=c1c(O)c(-c2ccc(O)c(O)c2)oc2cc(O)cc(O)c12",
    "category": "condition met"
  },
  {
    "molecule": "CN(C)c1ccc2nc3ccc(=[N+](C)C)cc-3sc2c1",
    "category": "condition not met"
  }
]
